- Tested on: SN12C
- EXPERIMENTAL DETAILS: NCI tumour cell line growth inhibition, 48 h
Active and inactive are the calls of the source. No stated cut-off is given here; in the data, active = GI50 up to about 1.1 µM and inactive = higher.
MEASURED METRIC: GI50

Solved entries:
1) OCc1ccc2c(c1)CC1(C2)Cc2cc3c(cc2C1O)CCC3 (stereo not given) : 3.22 µM (inactive)
2) O=C(N/N=C/c1ccc(Cl)cc1)c1c(Cl)c(Cl)c(Cl)c(Cl)c1-c1nc2ccccc2[nH]1 : > 100 µM (inactive)
3) CC(C1=CC=C2[C@@H]3CCC4CC(N(C)C)CC[C@]4(C)C3CC[C@]12C)N(C)C=O (stereo not given in full) : > 100 µM (inactive)
4) CCOC(=O)c1[nH]c2nc(SC)nc(Nc3ccccc3Cl)c2c1N : 36.2 µM (inactive)

Fill in the blank: the reported GI50 of Cc1sc(Nc2ccc(Nc3nc(-c4ccccc4)c(C)s3)cc2)nc1-c1ccccc1 is ____.
31.3 µM (inactive)
